Numbers sourced from patent US7595300B2.

protocol.description: Pharmacokinetics in the mouse, plasma and lung tissue
Assay type: in vivo
conditions.used: mouse plasma, oral gavage 10 mg/kg
measurement.type: Cmax (ng/mL)
Numbers only, in ng/mL.

>>> recorded_result("CC1CC(N(C)C)C(O)C(O[C@@H]2[C@@H](C)C(=O)[C@@H](C)C(=O)O[C@H](CCF)[C@@]3(C)OC(=O)N[C@@H]3[C@@H](C)C(=O)[C@H](C)C[C@@]2(C)OC/C=C/c2ccc3cccnc3c2)O1 (some centres unmarked)")
260

Now, please, on to the next molecule.
Q: Given CC1CC(N(C)C)C(O)C(O[C@@H]2[C@@H](C)C(=O)[C@](C)(F)C(=O)O[C@H](CCF)[C@@]3(C)OC(=O)N[C@@H]3[C@@H](C)C(=O)[C@H](C)C[C@@]2(C)OC/C=C/c2ccc3cccnc3c2)O1 (some centres unmarked) , respond with its Cmax.
Ans: 3000

----------
System: anesthetized guinea pigs
protocol.description: Cardiovascular safety, QTc interval in anesthetized guinea pigs, i.v. bolus
Assay type: in vivo, guinea pig
conditions.used: anesthetized guinea pig, incremental i.v. bolus doses 0.47 to 15 mg/kg
measurement.type: QTc prolongation (% above vehicle)
Answers are plain numbers, in % above vehicle.

Worked examples, 5 molecules total:
>>> recorded_result("CC1CC(N(C)C)C(O)C(O[C@@H]2[C@@H](C)C(=O)[C@@H](C)C(=O)O[C@H](CCF)[C@@]3(C)OC(=O)N[C@@H]3[C@@H](C)C(=O)[C@H](C)C[C@@]2(C)OC/C=C/c2cnc3cccnc3c2)O1 (stereo partly shown)")
14
>>> recorded_result("CC1CC(N(C)C)C(O)C(O[C@@H]2[C@@H](C)C(=O)[C@](C)(F)C(=O)O[C@H](CCF)[C@@]3(C)OC(=O)N[C@@H]3[C@@H](C)C(=O)[C@H](C)C[C@@]2(C)OC/C=C/c2cnc3ccccc3c2)O1 (stereo partly shown)")
3
>>> recorded_result("CC1CC(N(C)C)C(O)C(O[C@@H]2[C@@H](C)C(=O)[C@@H](C)C(=O)O[C@H](CCF)[C@@]3(C)OC(=O)N[C@@H]3[C@@H](C)C(=O)[C@H](C)C[C@@]2(C)OC/C=C/c2ccc3nccnc3c2)O1 (stereo partly shown)")
1
>>> recorded_result("CC1CC(N(C)C)C(O)C(O[C@@H]2[C@@H](C)C(=O)[C@@H](C)C(=O)O[C@H](CCF)[C@@]3(C)OC(=O)N[C@@H]3[C@@H](C)C(=O)[C@H](C)C[C@@]2(C)OC/C=C/c2ccc3ncccc3c2)O1 (stereo partly shown)")
12
>>> recorded_result("CC1CC(N(C)C)C(O)C(O[C@@H]2[C@@H](C)C(=O)[C@@H](C)C(=O)O[C@H](CCF)[C@@]3(C)OC(=O)N[C@@H]3[C@@H](C)C(=O)[C@H](C)C[C@@]2(C)OC/C=C/c2ccc3cccnc3c2)O1 (stereo partly shown)")
1

Give QTc prolongation (% above vehicle) for each listed item.
1. CC1CC(N(C)C)C(O)C(O[C@@H]2[C@@H](C)C(=O)[C@](C)(F)C(=O)O[C@H](CCF)[C@@]3(C)OC(=O)N[C@@H]3[C@@H](C)C(=O)[C@H](C)C[C@@]2(C)OC/C=C/c2ccc3nccnc3c2)O1 (stereo partly shown)
2. CC1CC(N(C)C)C(O)C(O[C@@H]2[C@@H](C)C(=O)[C@@H](C)C(=O)O[C@H](CCF)[C@@]3(C)OC(=O)N[C@@H]3[C@@H](C)C(=O)[C@H](C)C[C@@]2(C)OC/C=C/c2cnc3ccccc3c2)O1 (stereo partly shown)

Ans:
4
10

----------
protocol.description: in vivo
conditions.used: male, beagle, dog, iv, 15 mg/kg, AUCtot
measurement.type: AUC (µg·h/mL)
Answers are plain numbers, in µg·h/mL.

Q: Check the records and state AUC for CC1CC(N(C)C)C(O)C(O[C@@H]2[C@@H](C)C(=O)[C@](C)(F)C(=O)O[C@H](CCF)[C@@]3(C)OC(=O)N[C@@H]3[C@@H](C)C(=O)[C@H](C)C[C@@]2(C)OC/C=C/c2ccc3cccnc3c2)O1 (stereo partly shown) [Compound (III)]
Ans: 43.9

----------
System: anesthetized rats
protocol.description: Cardiovascular safety, QT interval in anesthetized rats, i.v. bolus
Assay type: in vivo, rat
conditions.used: anesthetized rat, incremental i.v. bolus doses 0.47 to 15 mg/kg
If the reported QT prolongation (% above vehicle) equals or exceeds 20 % above vehicle, assign Met. If not, assign Not met.

As a guide, the following entries are already answered.
>>> cat("CC1CC(N(C)C)C(O)C(O[C@@H]2[C@@H](C)C(=O)[C@@H](C)C(=O)O[C@H](CCF)[C@@]3(C)OC(=O)N[C@@H]3[C@@H](C)C(=O)[C@H](C)C[C@@]2(C)OC/C=C/c2ccc3nccnc3c2)O1 (stereo partly shown)")
"Not met"
>>> cat("CC1CC(N(C)C)C(O)C(O[C@@H]2[C@@H](C)C(=O)[C@](C)(F)C(=O)O[C@H](CCF)[C@@]3(C)OC(=O)N[C@@H]3[C@@H](C)C(=O)[C@H](C)C[C@@]2(C)OC/C=C/c2cnc3ccccc3c2)O1 (stereo partly shown)")
"Not met"
>>> cat("CC1CC(N(C)C)C(O)C(O[C@@H]2[C@@H](C)C(=O)[C@@H](C)C(=O)O[C@H](CCF)[C@@]3(C)OC(=O)N[C@@H]3[C@@H](C)C(=O)[C@H](C)C[C@@]2(C)OC/C=C/c2cnc3cccnc3c2)O1 (stereo partly shown)")
"Met"
>>> cat("CC1CC(N(C)C)C(O)C(O[C@@H]2[C@@H](C)C(=O)[C@](C)(F)C(=O)O[C@H](CCF)[C@@]3(C)OC(=O)N[C@@H]3[C@@H](C)C(=O)[C@H](C)C[C@@]2(C)OC/C=C/c2ccc3nccnc3c2)O1 (stereo partly shown)")
"Not met"
>>> cat("CC1CC(N(C)C)C(O)C(O[C@@H]2[C@@H](C)C(=O)[C@@H](C)C(=O)O[C@H](CCF)[C@@]3(C)OC(=O)N[C@@H]3[C@@H](C)C(=O)[C@H](C)C[C@@]2(C)OC/C=C/c2ccc3cccnc3c2)O1 (stereo partly shown)")
"Not met"

Field: next molecule
Q: Threshold query (QT prolongation (% above vehicle) >= 20 % above vehicle) on CC1CC(N(C)C)C(O)C(O[C@@H]2[C@@H](C)C(=O)[C@@H](C)C(=O)O[C@H](CCF)[C@@]3(C)OC(=O)N[C@@H]3[C@@H](C)C(=O)[C@H](C)C[C@@]2(C)OC/C=C/c2cnc3ccccc3c2)O1 (stereo partly shown)
Ans: Not met

----------
protocol.description: Pharmacokinetics in the mouse, plasma and lung tissue
Format: in vivo
conditions.used: mouse lung tissue, oral gavage 10 mg/kg
Description: The pharmacokinetics of compounds of formula (VIII) and compounds of formula (II) and (III) were measured in the mouse. Compounds were administered either intravenously (i.v.) at 1 mg/kg, or per oral gavage (p.o.) at 10 mg/kg. Plasma samples were taken and analyzed by LC/MS-MS. For lung tissue pharmacokinetics, lungs were removed and homogenized, followed by analyzis by LC/MS-MS.
Assign class by Lung AUC: not lower than 2 ug/mL-h means true; lower than 2 ug/mL-h means false.

Recorded results for 5 compounds are shown here.
>>> cat("CC1CC(N(C)C)C(O)C(O[C@@H]2[C@@H](C)C(=O)[C@@H](C)C(=O)O[C@H](CCF)[C@@]3(C)OC(=O)N[C@@H]3[C@@H](C)C(=O)[C@H](C)C[C@@]2(C)OC/C=C/c2ccc3cccnc3c2)O1 (stereo partly drawn) [Compound (II)]")
"false"
>>> cat("CC1CC(N(C)C)C(O)C(O[C@@H]2[C@@H](C)C(=O)[C@](C)(F)C(=O)O[C@H](CCF)[C@@]3(C)OC(=O)N[C@@H]3[C@@H](C)C(=O)[C@H](C)C[C@@]2(C)OC/C=C/c2ccc3cccnc3c2)O1 (stereo partly drawn) [Compound (III)]")
"true"
>>> cat("CC1CC(N(C)C)C(O)C(O[C@@H]2[C@@H](C)C(=O)[C@](C)(F)C(=O)O[C@H](CCF)[C@@]3(C)OC(=O)N[C@@H]3[C@@H](C)C(=O)[C@H](C)C[C@@]2(C)OC/C=C/c2cnc3ccccc3c2)O1 (stereo partly drawn) [B]")
"true"
>>> cat("CC1CC(N(C)C)C(O)C(O[C@@H]2[C@@H](C)C(=O)[C@](C)(F)C(=O)O[C@H](CCF)[C@@]3(C)OC(=O)N[C@@H]3[C@@H](C)C(=O)[C@H](C)C[C@@]2(C)OC/C=C/c2ccc3nccnc3c2)O1 (stereo partly drawn) [H]")
"true"
>>> cat("CC1CC(N(C)C)C(O)C(O[C@@H]2[C@@H](C)C(=O)[C@@H](C)C(=O)O[C@H](CCF)[C@@]3(C)OC(=O)N[C@@H]3[C@@H](C)C(=O)[C@H](C)C[C@@]2(C)OC/C=C/c2ccc3nccnc3c2)O1 (stereo partly drawn) [G]")
"true"

Now take the following compound into account.
Q: Threshold query (Lung AUC >= 2 ug/mL-h) on CC1CC(N(C)C)C(O)C(O[C@@H]2[C@@H](C)C(=O)[C@@H](C)C(=O)O[C@H](CCF)[C@@]3(C)OC(=O)N[C@@H]3[C@@H](C)C(=O)[C@H](C)C[C@@]2(C)OC/C=C/c2cnc3ccccc3c2)O1 (stereo partly drawn) [A]
Ans: true
